From: PubChem BioAssay (NCI)

Tested on: NCI-H226 lung
Experiment: NCI tumour cell line growth inhibition, 48 h
Below, each entry is listed alongside its reported TGI.

Below, 5 compounds whose answers are already recorded.
compound=[CH3][Hg]/[N]=C(/N)NC#N observable=TGI assay_result="32.5 µM"
compound="CC(C)CC1N=C(OCc2ccccc2)OC1=O (configuration not stated)" observable=TGI assay_result="> 100 µM"
compound=CON[N+]([O-])=NC(C)C observable=TGI assay_result="> 100 µM"
compound="CCCCCCCCCCCCCCCC(=O)OC1C(O)C(O)C(O)C(O)C12CO2 (configuration not stated)" observable=TGI assay_result="> 100 µM"
compound=COC(=O)C1Cc2cc3c(cc2C1)CCC3 observable=TGI assay_result="> 100 µM"

Hey, NCI-H226 lung data for `CC[C@@]1(O)C(=O)OCc2c1cc1n(c2=O)Cc2c-1nc1cc(F)c(C)c3c1c2[C@@H](NC(=O)CO)CC3` : TGI came out at 0.117 µM

The compound `CCc1ncc(CO)n1Cc1cccc2ccccc12` , when measured on NCI-H226 lung, yielded TGI of > 100 µM

* * *

# TGI values compiled below
Tested on: NCI-H522 lung
Assay: NCI tumour cell line growth inhibition, 48 h
All answers are understood in µM, so give the number only.

Below: 5 compounds and their reported TGI.
smiles_code=O=C(NC(OCc1ccccc1)(C(F)(F)F)C(F)(F)F)OCc1ccccc1 observable=TGI quantity_unit=µM assay_result=26.5
smiles_code=COc1cc2c(cc1OCCCN1CCN(C(=S)SCCC(C#N)(c3ccccc3)c3ccccc3)CC1)N=C[C@@H]1CCCN1C2=O observable=TGI quantity_unit=µM assay_result=2.43
smiles_code=Nc1c(C(=O)Nc2cccc(C(F)(F)F)c2)sc2nc3c(cc12)CCCCCC3 observable=TGI quantity_unit=µM assay_result=26.9
smiles_code=CC1(C)[C@H]2Cc3cc4nc5ccccn5c4cc3[C@@H]1C2 observable=TGI quantity_unit=µM assay_result=21.9
smiles_code=O=C(CN1CCN(C(=O)c2ccco2)CC1)Nc1ccc(Cl)cc1C(=O)c1ccccc1Cl observable=TGI quantity_unit=µM assay_result=27.4

Let's switch to this compound now.
# compound `CCOC(=O)c1cc([N+](=O)[O-])c(Sc2ncnc3nc[nH]c23)c([N+](=O)[O-])c1` ; its TGI = 2.34

* * *

System: M14 melanoma
Test: NCI tumour cell line growth inhibition, 48 h; in the data active = GI50 below about 0.43 µM; inactive = the rest
Reply using exactly one outcome from active, inactive

Recorded results for 6 compounds are shown here.
compound="CCN(CC)CC(O)c1cc(-c2ccc(Cl)cc2)nc2c(C)c(Cl)ccc12 (stereo not drawn)" group_label=inactive
compound="CC[C@@H](C)/C=C(C)/C=C/C(=O)c1c(O)c(-c2ccc(O)cc2)cn(OC2CC(=O)CCC(C)OC(=O)CC2O)c1=O (stereo partly drawn)" group_label=active
compound="O=c1/c(=C\\c2ccc(Br)cc2)sc2n1C(c1ccc(Br)cc1)C1=C(N=2)c2ccc3ccccc3c2OCC1 (stereo not drawn)" group_label=inactive
compound=COc1cc2c(cc1OCCCN1CCN(C(=S)SCCC(C#N)(c3ccccc3)c3ccccc3)CC1)N=C[C@@H]1CCCN1C2=O group_label=inactive
compound=Nc1ncnc2c1ccn2-c1cccc(NC(=O)c2ccc(N3CCOCC3)c(C(F)(F)F)c2)c1 group_label=inactive
compound=CC/C(=C(/c1ccc(OCCN(C)C)cc1)c1ccc(OC(=O)CCCCCCCCC(=O)c2c(C)[nH]c(/C=C3\N=C(c4ccc[nH]4)C=C3OC)c2C)cc1)c1ccccc1 group_label=inactive

Query: # fetch the recorded call for `COC(=O)Nc1nc2ccc(C(=O)c3ccc(F)cc3)cc2[nH]1` here
Response: active

Query: Outcome logged for `COC(=O)c1c2c(c(C)[n+]([O-])c1C)C(=O)C(NCc1ccc(O)cc1)=CC2=O` in this assay:
Response: inactive

* * *

Test system: A549 NSCLC
Assay: NCI tumour cell line growth inhibition, 48 h; in the data active means GI50 below about 0.43 µM; inactive means the rest
The categories you may choose from are active, inactive

These recorded examples may help you get a feel for the data.
compound=CCCCCCCCCCCCCCCCCCOc1ccccc1COP(=O)(O)OOCC[N+](C)(C)C target_or_test_system="A549 NSCLC" group_label=inactive
compound=[CH3][Hg]/[N]=C(/N)NC#N target_or_test_system="A549 NSCLC" group_label=inactive
compound="O=c1/c(=C\\c2ccc(Br)cc2)sc2n1C(c1ccc(Br)cc1)C1=C(N=2)c2ccc3ccccc3c2OCC1 (stereo not drawn)" target_or_test_system="A549 NSCLC" group_label=inactive
compound="COc1cc(C2CC(c3cccc(Nc4ccnc5cc(Cl)ccc45)c3)=NN2c2ccccc2)cc(OC)c1OC (stereo not drawn)" target_or_test_system="A549 NSCLC" group_label=inactive
compound="COCCCC(NC(=O)C(CC(C)C)NC(=O)OCc1ccc(OC)cc1)C(=O)OC (stereo not drawn)" target_or_test_system="A549 NSCLC" group_label=inactive
compound=O=C1c2ccc3c4c(ccc(c24)C(=O)N1CCNCc1ccccc1)C(=O)N(CCNCc1ccccc1)C3=O target_or_test_system="A549 NSCLC" group_label=inactive
compound="O=C(NN1C(=O)CSC1c1c(Cl)cccc1Cl)C(O)c1ccccc1 (stereo not drawn)" target_or_test_system="A549 NSCLC" group_label=inactive
compound=Nc1ncnc2c1ccn2-c1cccc(NC(=O)c2ccc(N3CCOCC3)c(C(F)(F)F)c2)c1 target_or_test_system="A549 NSCLC" group_label=inactive

Moving on to another compound below.
Query: Answer briefly: the call reported for `COc1ccc(/C=C\c2cc(OC)c(OC)c(OC)c2)c(NS(=O)(=O)c2ccc(F)cc2)c1O` in this assay.
Response: active

* * *

Test system: SK-MEL-2 melanoma
Assay: NCI tumour cell line growth inhibition, 48 h
OBSERVABLE: TGI

Use the examples below as a reference point.
compound="CC1OC(CO)(n2cnc3c(N)ncnc32)C(O)C1O (centres undefined)" observable=TGI assay_result="> 100 µM"
compound=COc1ccc(-c2cc(=O)c3cc(O)ccc3o2)c(OC)c1OC observable=TGI assay_result="> 100 µM"

Per the records, this compound ( `Nc1cc(N)c2nc(NCCc3ccc(Cl)c(Cl)c3)cnc2c1` ) has TGI equal to 21.4 µM

The compound `COCCn1c2c([n+](Cc3cnccn3)c1C)C(=O)c1ccccc1C2=O` showed TGI equal to 0.0127 µM

Lookup result for `CC1(C)[C@H]2Cc3cc4nc5ccccn5c4cc3[C@@H]1C2` ; measured TGI: 32 µM

Record `O=c1oc2ccccc2n1P(=O)(Oc1ccc(Cl)cc1)n1c(=O)oc2ccccc21` . Reported TGI: > 100 µM

Briefly, TGI measured for `CC(C)(C)CI` : 37.6 µM

Recorded result, `O=C(CN1CCN(C(=O)c2ccco2)CC1)Nc1ccc(Cl)cc1C(=O)c1ccccc1Cl` , TGI: 17.5 µM

// TGI lookup, compound = OCC1OC(n2cnc3c(Cl)nc(Nc4ccc(Cl)c(Cl)c4)nc32)CC1O (centres undefined) , result: 19.2 µM

Sure, the documented TGI for `C/C(=N\O)c1cccc(Nc2c3ccccc3nc3occc23)c1` is 25.2 µM

Value of measured TGI for the entry `O=C(CC(=O)c1cccc([N+](=O)[O-])c1)C(=O)Nc1ccccc1` : > 100 µM

compound `CC#CC#C/C(=C/C=CC(=O)OC)SC` , TGI observed: > 100 µM

// sample `C[C@]12CC[C@H]3[C@@H](CC[C@]4(O)C[C@@H](O[C@@H]5O[C@H](CO)[C@@H](O[C@@H]6OC[C@@H](O)[C@H](O)[C@H]6O)[C@H](O)[C@H]5O)CC[C@]34C=O)[C@@]1(O)CC[C@@H]2C1=CC(=O)OC1` , its TGI was 4.44 µM

Note to self: TGI recorded for Clc1ccccc1C1SCc2nc3ccccc3n21 (centres undefined) was 57.1 µM

TGI measured on `COc1ccc(C=O)cc1OS(=O)(=O)C(F)(F)C(F)(F)C(F)(F)C(F)(F)F` = 43.9 µM

Value of TGI reported for the compound C[C@]12CCc3nn(-c4ccccc4)nc3C1CC[C@@H]1C2CC[C@]2(C)C(=O)CCC12 (some centres undefined) is > 100 µM

For `C[C@@H]1CC[C@@]2(C)[C@H](C)/C(=C\COC(=O)/C=C/c3ccc(O)c(O)c3)CC[C@@]12C` the compound record lists TGI as 25.4 µM

Reported TGI of COC(=O)Cc1c(C2C(CC(=O)OC)c3ccccc3N2C2OC(CO)C(O)C(O)C2O)[nH]c2ccccc12 (centres undefined) : > 100 µM

* * *

Tested on: OVCAR-5 ovarian
Assay: NCI tumour cell line growth inhibition, 48 h
Reported TGI values follow for various compounds

compound="O=C(O)CCC1c2[nH]c3ccccc3c2CCN1Cc1ccccc1 (configuration not stated)" target_or_test_system="OVCAR-5 ovarian" observable=TGI assay_result="> 100 µM"
compound="CCCCCCCCCC[C@H](O)[C@H]1CC[C@@H]([C@@H](O)CC[C@H](O)[C@@H]2CCC(CCCCCCC[C@@H](O)CC3=C[C@H](C)OC3=O)O2)O1 (some centres not stated)" target_or_test_system="OVCAR-5 ovarian" observable=TGI assay_result="28.4 µM"
compound=COC(=O)[C@]12CC[C@@H](C)[C@H](C)[C@@H]1C1=CC[C@@H]3[C@@](C)(CC#N)C4=C(C[C@@]3(C)[C@]1(C)CC2)OC[C@]4(C)C=O target_or_test_system="OVCAR-5 ovarian" observable=TGI assay_result="35.8 µM"
compound=Cn1cnc(C(=N)[Se])c1N target_or_test_system="OVCAR-5 ovarian" observable=TGI assay_result="> 100 µM"
compound=CN(C)c1ccc(/C=c2/c3cc(O)ccc3n3c2cc(-c2ccccc2)[n+]3C)cc1 target_or_test_system="OVCAR-5 ovarian" observable=TGI assay_result="> 100 µM"

Notebook: `COc1ccc(/C=C/C(=O)/C=C(O)/C=C/c2ccc(OC)c(OC)c2)cc1OC` , TGI read as 46.4 µM

Record `NC1(C(=O)N[C@@H](CCO)c2ccc(Cl)cc2)CCN(c2ncnc3[nH]ccc23)CC1` , field TGI: > 100 µM

Quick note, TGI for CC1(C)C(CC(=O)O)CCCC1CC(=O)O (configuration not stated) landed at > 100 µM

Per the records, this compound ( CO/C(=C1/NC(=O)C(Cc2ccc(O)c(Br)c2)N(C)C(=O)C(C)NC(=O)CCC/C=C(\C)CCC(C)OC1=O)c1ccccc1 (configuration not stated) ) has TGI equal to > 35 µM
